Reported GI50 values for the following compounds.
tested on: BT-549; test: NCI tumour cell line growth inhibition, 48 h
Active and inactive are the calls of the source. Rule as the data show it: active = GI50 up to about 1.1 µM and inactive = higher.

For orientation, consider the following solved cases.
INSERT INTO assay_data (chemical_smiles, observed_result) VALUES
  ('Cc1cc([N+](=O)[O-])c(C)c(Br)c1C', '> 100 µM (inactive)'),
  ('COc1ccc(Cc2n[nH]c(Nc3ccc(Br)cc3)nc2=O)cc1OC', '27 µM (inactive)');

Request: Using the record for NCCCc1ccc2oc3ccccc3c2c1 , state its measured GI50.
Result: 19.9 µM (inactive)

Request: Using the record for CCOP(=O)(OCC)/C(=C\n1c(=S)[nH]c2cc(C)ccc21)C(=O)OC , state its measured GI50.
Result: > 100 µM (inactive)

Request: Using the record for CCOC(=O)Nn1cnnc1Cc1ccccc1 , state its measured GI50.
Result: > 100 µM (inactive)

Request: Using the record for N=C(N)SCCON1C(=O)c2ccccc2C1=O , state its measured GI50.
Result: > 100 µM (inactive)
